Tested on: MCF7 breast
Assay: NCI tumour cell line growth inhibition, 48 h
Parameter TGI: see the listing below.
measured attribute: TGI

C=CC[N+]1(CC)CCN=C1CCCCCCCCCCCCCCCCC (configuration not stated): 1.28 µM
CC1CCN(CCOc2ccc(CNc3ccc4nc(CCC5CCCCC5)[nH]c4c3)cc2)CC1: 3.8 µM
COC1=C2CC(C)CC(OC)C(OC(=O)CCCN)C(C)/C=C(\C)C(OC(N)=O)C(OC)/C=C\C=C(/C)C(=O)NC(=CC1=O)C2=O (configuration not stated): 13.2 µM
COC1=C(OC)C(=O)C(CCCCCCCCCCO)=C(C)C1=O: 4.45 µM
[Cl][Cu][Cl]: > 10 µM
COc1ccc(S(=O)(=O)N2CCNCC2)cc1OC: > 100 µM
COc1ccc(C(=O)Oc2c(C#N)sc3c2c(=O)n(-c2ccccc2)c(=S)n3-c2ccccc2)cc1: 80.4 µM
C[C@H]1C[C@H]2[C@@H]3CCC4=CC(=O)C=C[C@]4(C)C3=CC[C@]2(C)[C@@]1(O)C(=O)CO: > 100 µM
N#Cc1cccc(Nc2ncc(-c3ccccc3)o2)c1: > 25 µM
C[C@H](NC(=O)CNC(=O)CCCCCC(=O)NCC(=O)N[C@@H](C)C(=O)OCc1ccccc1)C(=O)OCc1ccccc1: > 100 µM
CCCCN(C)C(=O)C1=C(C)NC(C)=C(C(=O)N(C)CCCC)C1: > 100 µM
c1ccc(CN2COc3c(ccc4c5c(ccc34)CN(Cc3ccccc3)CO5)C2)cc1: > 100 µM
O=C(O)CCCc1ccccc1: > 1000 µM
COc1cc(C(=O)C2CC3(CCC2(O)c2cc(OC)c(OC)c(OC)c2)CC(=O)Nc2ccccc2C3=O)cc(OC)c1OC (configuration not stated): > 100 µM
O/N=C1/CCCc2nonc21: > 100 µM
O=c1[nH]c(=S)[nH]c(-c2ccccc2)c1Cc1c(O)ccc2ccccc12: > 100 µM
N#Cc1c(-c2ccccc2)cc(-c2ccccc2)n(C2OCC(O)C(O)C2O)c1=S (configuration not stated): 41.7 µM
O=c1[nH]c2nc[nH]c2c(=O)n1C1CCCCC1: > 100 µM
c1ccc(COC2C3COC(O3)C(OCc3ccccc3)C2OCc2ccccc2)cc1 (configuration not stated): > 100 µM
C#CCNC(=O)NC(CCCCNC(=O)OCc1ccccc1)C(=O)OCc1ccccc1 (configuration not stated): > 100 µM
COc1ccc(-c2[nH]c3ccccc3c2/C=C(\C#N)S(=O)(=O)c2ccccc2)cc1: > 51.6 µM
CC(=O)NCCCCN(CCCNC(C)=O)C(=O)OCc1ccccc1: > 100 µM
